The origin of these recorded values is patent US20220185900A1.

- assay target: human RET on cells (MCF7/SRE-Luc; HEK293/hGFRα3/hRET/SRE-Luc; HEK293/hGFRα1/hRET/SRE-Luc) (human), P07949
- experimental details: cell-based or functional assay
outcome measure: MCF7/SRE-Luc Avg % Blocking (%)
Your answer should be a plain number; it is taken to be in %.

Reference set, count: 8
H4H8046P (antibody, human IgG4, V domains shown) VH: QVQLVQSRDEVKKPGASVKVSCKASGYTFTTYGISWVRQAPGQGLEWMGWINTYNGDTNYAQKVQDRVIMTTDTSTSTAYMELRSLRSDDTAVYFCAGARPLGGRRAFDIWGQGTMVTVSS VL: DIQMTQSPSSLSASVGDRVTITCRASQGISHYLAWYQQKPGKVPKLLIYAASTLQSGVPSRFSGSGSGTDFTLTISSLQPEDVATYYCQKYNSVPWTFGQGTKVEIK = 78
H4H8056P (antibody, human IgG4, V domains shown) VH: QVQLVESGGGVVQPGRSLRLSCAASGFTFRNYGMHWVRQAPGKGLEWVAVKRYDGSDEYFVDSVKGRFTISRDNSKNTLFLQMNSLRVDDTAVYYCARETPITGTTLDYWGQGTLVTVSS VL: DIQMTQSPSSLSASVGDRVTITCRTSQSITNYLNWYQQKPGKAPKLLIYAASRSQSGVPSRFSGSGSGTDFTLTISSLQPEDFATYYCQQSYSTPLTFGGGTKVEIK = 73
H4H8060P (antibody, human IgG4, V domains shown) VH: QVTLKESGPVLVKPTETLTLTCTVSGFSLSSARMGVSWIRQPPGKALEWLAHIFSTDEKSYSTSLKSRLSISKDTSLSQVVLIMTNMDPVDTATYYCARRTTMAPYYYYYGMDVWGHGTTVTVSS VL: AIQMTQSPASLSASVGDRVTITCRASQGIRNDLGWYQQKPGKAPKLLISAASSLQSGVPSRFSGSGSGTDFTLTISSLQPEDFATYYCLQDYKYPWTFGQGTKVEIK = 87
H4H8058P (antibody, human IgG4, V domains shown) VH: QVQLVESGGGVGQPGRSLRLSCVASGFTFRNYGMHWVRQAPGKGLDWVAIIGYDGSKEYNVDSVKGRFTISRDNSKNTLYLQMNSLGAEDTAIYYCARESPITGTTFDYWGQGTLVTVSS VL: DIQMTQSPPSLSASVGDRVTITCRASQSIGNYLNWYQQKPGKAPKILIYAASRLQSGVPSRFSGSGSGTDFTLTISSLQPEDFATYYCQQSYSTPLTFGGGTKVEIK = 85
H4H8071P (antibody, human IgG4, V domains shown) VH: EVQLVESGGGLVQPGGSLRLSCAASGFTFTTYFMSWVRQAPGKGLEWVSGISGSGTSTFYVDSMKGRFTISRDNSKNTLYLQMNSLRVEDTAVYFCAKENTYGHFDFWGQGTLVTVSS VL: DIQLTQSPSFLSASVGDRVTITCWASQDISSHLAWYQQKPGKAPKVLIYDASTLQSGVPSRISGSGSGTEFTLTISSLQPEDFAAYYCQQLDGYPYTFGQGTKLEIK = 84
H4H8066P (antibody, human IgG4, V domains shown) VH: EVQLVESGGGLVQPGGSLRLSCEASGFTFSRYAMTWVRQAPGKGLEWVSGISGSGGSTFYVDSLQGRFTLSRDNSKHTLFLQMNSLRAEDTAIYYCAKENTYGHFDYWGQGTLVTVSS VL: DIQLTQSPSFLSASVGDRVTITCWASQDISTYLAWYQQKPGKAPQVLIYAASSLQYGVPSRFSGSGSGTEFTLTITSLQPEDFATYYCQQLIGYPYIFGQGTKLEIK = 60
H4H8045P (antibody, human IgG4, V domains shown) VH: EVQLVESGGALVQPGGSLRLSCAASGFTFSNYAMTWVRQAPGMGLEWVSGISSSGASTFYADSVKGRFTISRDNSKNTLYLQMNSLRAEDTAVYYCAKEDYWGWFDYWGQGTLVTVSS VL: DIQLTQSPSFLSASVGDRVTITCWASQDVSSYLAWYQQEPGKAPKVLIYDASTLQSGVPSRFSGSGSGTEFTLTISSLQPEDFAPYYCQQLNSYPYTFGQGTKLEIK = 69
H4H8076P (antibody, human IgG4, V domains shown) VH: QVQLQQSGPGLVKPSQTLSLTCAISGDSVSSNSVAWNWIRQSPSRGLEWLGRTYYRSNWYNTYAVSVKSRITIDPDTSKNQFSLQLNSVTPEDTALYYCARGHRYSGSYFDYWGQGTLVTVSS VL: DIQMTQSPSSLSASVGDRVTITCRASQNINSYFNWYQQKPGKAPKLLIYAASSLQSGVPSRFSGGGSGTDFTLTISSLQPEDFATYYCQQTYTIPWTFGQGTKVEIK = 74

Quick check: MCF7/SRE-Luc Avg % Blocking of H4H8080P (antibody, human IgG4, V domains shown) VH: EVQLVESGGGLVQSGGSLRLSCVASGFTFSTYAMTWVRQAPGRGLEWVSAISGSGASTYYADSLKGRFTVSRDNSKNTLYLQMNSLRAEDTAVYYCSKDHRNYDSDYDMDVWGQGTTVTVSS VL: DIQMTQSPSSLSASVGDRVTITCRASQGIRNYLGWYQQKPGKAPKRLIYTASSLQSGVPSRFRGSGSGTEFTLTISSLQPEDFATYYCLQHNSYPYTFGQGTKLEIK ?
41

Quick check: MCF7/SRE-Luc Avg % Blocking of H4H8085P (antibody, human IgG4, V domains shown) VH: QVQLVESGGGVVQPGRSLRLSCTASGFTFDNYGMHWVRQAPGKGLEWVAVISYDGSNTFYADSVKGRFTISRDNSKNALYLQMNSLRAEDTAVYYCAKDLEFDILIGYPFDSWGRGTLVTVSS VL: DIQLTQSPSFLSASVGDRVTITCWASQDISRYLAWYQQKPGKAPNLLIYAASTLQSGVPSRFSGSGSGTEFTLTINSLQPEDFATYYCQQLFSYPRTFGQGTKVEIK ?
0
